- ASSAY SYSTEM: Histone-lysine N-methyltransferase EHMT2 (Homo sapiens) (UniProt Q96KQ7)
- Sequence (Q96KQ7 913-1193 limits assumed): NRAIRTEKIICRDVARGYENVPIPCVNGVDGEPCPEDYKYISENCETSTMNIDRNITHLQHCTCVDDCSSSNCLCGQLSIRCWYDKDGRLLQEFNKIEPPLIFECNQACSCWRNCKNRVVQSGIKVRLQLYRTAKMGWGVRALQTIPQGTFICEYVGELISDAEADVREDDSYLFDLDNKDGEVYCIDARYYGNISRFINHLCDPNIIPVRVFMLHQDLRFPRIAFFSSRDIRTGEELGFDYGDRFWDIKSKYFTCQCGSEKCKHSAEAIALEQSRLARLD
- TEST PROTOCOL: qHTS Assay for Inhibitors of Histone Lysine Methyltransferase G9a; further: nearly all actives have a fitted effect of over 75% in size
- MEASUREMENT PARAMETERS: G9a H3K9 monomethylation, AlphaScreen, 2 h; series mostly up to 59 µM
Among all 350,000 compounds or so, about 31,000 (8.9%) were called active. Roughly 15% stayed inconclusive and do not appear here. The call rests on the fitted dose curve; in most records, active means well fitted inhibition curve with a large enough effect; inconclusive means small, poorly fitted or top-dose-only effect; inactive means no such curve, though single readings can be large or run the other way. Shown is part of a subset that was picked to be rich in actives.
Can you answer with just one of these options? active, inactive

Before answering, review these 3 worked examples.
COc1ccccc1CN1CCN(Cc2cc(OC)c(OC)cc2OC)CC1 :: active
CCOC(=O)c1sc(NC(=O)CSc2nnc(-c3ccco3)o2)c(C(=O)OCC)c1C :: inactive
COCCn1nnnc1C(c1cc2ccc(OC)cc2[nH]c1=O)N1CCc2ccccc2C1 (centres undefined) :: active

Hi team, can someone confirm the assay call for COc1cc(C(=O)NCc2cc3cc(Cl)ccc3n2C)cc(OC)c1OC ?
inactive

Same thing, different molecule: COc1ccc(OC)c(CN2CCN(C(=O)CNC(=O)c3cc(C)cc(C)c3)CC2)c1
inactive

Same thing, different molecule: CCC(C)(C)n1nnnc1C(c1ccccc1OC)N1CCSCC1 (centres undefined)
inactive

Same thing, different molecule: Cc1cccc(NC(=O)CSc2nnc(CNC(=O)c3cccc(C)c3)n2-c2ccccc2)c1
inactive

Same thing, different molecule: O=C(O)c1cccc(N2C(=O)Nc3ccccc3N2O)c1
inactive

Same thing, different molecule: COC(=O)CNC(c1ccccc1Cl)c1cc(Br)ccc1NC(=O)CCN1CCOCC1 (centres undefined)
active

Same thing, different molecule: Oc1ccccc1C1=NN(c2ccccc2)C(c2ccccc2)C1 (centres undefined)
inactive

Same thing, different molecule: CCCn1c(C)cc(-c2csc(NC(=O)CCc3nc4ccccc4c(=O)[nH]3)n2)c1C
active

Same thing, different molecule: COc1cc(Br)c(-c2sc(Nc3ccccc3)n[n+]2-c2ccccc2)cc1OC
active

Same thing, different molecule: O=C(NCCc1ccc(Cl)cc1)c1ccc2c(c1)N(Cc1ccc(F)cc1)C(=O)CS2
inactive

Same thing, different molecule: CCOc1ccccc1NC(=O)CN1CCN(S(=O)(=O)c2ccc(Br)cc2)CC1
inactive
